# experimentalTarget: human DGKα (Homo sapiens (Human), UniProt P23743)
# Sequence (P23743 whole entry, looked up): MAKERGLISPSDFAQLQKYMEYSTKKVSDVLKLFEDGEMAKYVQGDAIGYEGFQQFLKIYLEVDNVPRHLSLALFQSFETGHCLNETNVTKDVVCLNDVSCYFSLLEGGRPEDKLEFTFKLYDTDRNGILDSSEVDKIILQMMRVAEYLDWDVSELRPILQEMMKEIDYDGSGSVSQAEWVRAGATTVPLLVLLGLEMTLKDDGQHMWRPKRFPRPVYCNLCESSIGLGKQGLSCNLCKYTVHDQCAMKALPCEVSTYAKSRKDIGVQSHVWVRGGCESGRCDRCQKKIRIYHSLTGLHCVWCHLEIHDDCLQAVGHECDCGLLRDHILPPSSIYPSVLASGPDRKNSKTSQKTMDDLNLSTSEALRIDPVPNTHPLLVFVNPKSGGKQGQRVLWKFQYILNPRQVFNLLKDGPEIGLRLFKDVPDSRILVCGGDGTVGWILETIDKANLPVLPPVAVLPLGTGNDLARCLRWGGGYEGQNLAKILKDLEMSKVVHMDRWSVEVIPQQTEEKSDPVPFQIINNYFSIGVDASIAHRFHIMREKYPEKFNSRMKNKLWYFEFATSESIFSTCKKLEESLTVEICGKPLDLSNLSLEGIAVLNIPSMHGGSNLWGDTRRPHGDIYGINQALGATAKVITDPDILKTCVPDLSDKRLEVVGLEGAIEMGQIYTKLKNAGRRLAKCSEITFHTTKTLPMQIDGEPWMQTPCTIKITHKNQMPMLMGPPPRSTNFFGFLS
# protocolDetails: DGKα ADPGLO assay (detergent/lipid micelle substrate)
# Type: biochemical
# conditionDescription: ADPGLO assay; read-out: DGK alpha ADPGLO IC50
pIC50: −log10 of the molar value.
readoutKind: pIC50

# pIC50 (compound: CC[C@@H]1CN(c2nc(=O)n(C)c3ccc(C#N)nc23)[C@@H](C)CN1C(c1nc(C2CC2)no1)C(C)C (stereo partly shown) [Example 365] ) is 7.80

Sample CC[C@@H]1CN(c2nc(=O)n(C)c3ccc(C#N)nc23)[C@@H](C)CN1C(c1ccc(OC(C)C)cc1)C(C)C (stereo partly shown) [Example 324] ; pIC50 observed: 6.07

(a) CCC(c1ccc(F)c(F)c1)N1C[C@H](C)N(c2nc(=O)n(C)c3ccc(C#N)nc23)C[C@H]1CC (stereo partly shown) [Example 320]
(b) CC(c1ccc(CN2CC3(COC3)C2)cc1)N1C[C@H](C)N(c2nc(=O)n(C)c3ccc(C#N)nc23)C[C@H]1C (stereo partly shown) [Example 393]
(c) COC[C@H]1CN(C(C)c2ccc(C(F)(F)F)cc2)[C@H](C)CN1c1nc(=O)n(C)c2ccc(C#N)nc12 (single isomer, unassigned) [Example 410]
(d) CC[C@@H]1CN(c2nc(=O)n(C)c3ccc(C#N)nc23)[C@@H](CO)CN1C(C)c1ccc(C(F)(F)F)cc1 (single isomer, unassigned) [Example 411]
(e) CCC(c1ccc(OCC2(C)CC2)cc1)N1C[C@H](C)N(c2nc(=O)n(C)c3ccc(C#N)nc23)C[C@H]1CC (stereo partly shown) [Example 346]
Ask | Returns the items ordered by pIC50, from maximum to minimum. When ranking, write the labels in the order the request describes.
Reply | c, a, d, e, b
(c: 6.66, a: 6.38, d: 6.09, e: 5.89, b: 4.63)

(a) CC[C@@H]1CN(c2nc(=O)n(C)c3ccc(C#N)nc23)[C@@H](C)CN1C(C)c1ccc(CNC(=O)OC)cc1 (stereo partly shown) [Example 360]
(b) CCC(c1ccc(OC(C)C)cc1)N1C[C@H](C)N(c2nc(=O)n(C)c3ccc(C#N)nc23)C[C@H]1CC (stereo partly shown) [Example 334]
(c) CCC(c1ccc(OCC2(C)CC2)cc1)N1C[C@H](C)N(c2nc(=O)n(C)c3ccc(C#N)nc23)C[C@H]1CC (stereo partly shown) [Example 345]
(d) CCC(C1CCC(F)(F)CC1)N1C[C@H](C)N(c2nc(=O)n(C)c3ccc(C#N)nc23)C[C@H]1C (stereo partly shown) [Example 460]
Ask | Arrange by pIC50, high to low. Please express your ranking as an ordered list of the labels.
Reply | c, a, b, d

(I) CCC(c1ccc(OC)cc1)N1C[C@H](C)N(c2nc(=O)n(C)c3ccc(C#N)nc23)C[C@H]1CC (stereo partly shown) [Example 305]
(II) CCC(c1ccc(OCCC(F)(F)F)cc1)N1C[C@H](C)N(c2nc(=O)n(C)c3ccc(C#N)nc23)C[C@H]1CC (single isomer, unassigned) [Example 336]
Ask | Rank I against II by their pIC50 values and give the higher one. Your choice should be expressed through its label.
Reply | I
(I: 7.21, II: 6.32)

Cited source for all entries: patent US11584747B2
